Assay: protein stability index of a GFP-peptide fusion (GPS, HEK-293T) (PSI 1-6); higher = more stable;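 further: 24-mer peptide tiles fused after GFP, lentivirally expressed, FACS-sorted into six equal bins by GFP/DsRed ratio, decoded by Illumina sequencing, PSI is the read-weighted mean bin number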
Details: treatment: MLN4924 1 uM, 8 h; c terminus: a fixed tail appended
Property measured: protein stability index
Give bare numbers.

Below, each entry is followed by its recorded protein stability index result.
Sequence	Result
HRGLLTMQLKSPMPSSTTQKDSYQ [SPAG8]	4
RDNSPFDGPGGNLAHAFQPGPGIG [MMP1]	4.03
VLDVNNQSFREQEEPSNKRVRPLA [NET1]	3.99

Could you report protein stability index for every entry in the following list?
1. DATWAAVAACTKEIDTQGRHLAHS [C10orf62]
2. LNVQKTVDYTGQAKAQVRKAVQYE [STX11]

RESULT:
4.09
4.09

====

Kindly state protein stability index for each of the entries shown.
Assay: protein stability index of a GFP-peptide fusion (GPS, HEK-293T) (PSI 1-6); higher = more stable
Details: treatment: DMSO; c terminus: a fixed tail appended

Sequence	protein stability index
LGTENLHLIFSYSVWVLRDFPEDG [VPS39]	2.94

Could you report protein stability index for every entry in the following list?
1. AREHFGTVKTHLTSLKTKFPAEQY [TSN]
2. FIICIVIAILLYKSKPDRKRAESD [PTPRD]

RESULT:
1. 3.02
2. 2.96

====

Experiment: protein stability index of a GFP-peptide fusion (GPS, HEK-293T) (PSI 1-6); higher = more stable
Settings: treatment: MLN4924 1 uM, 8 h; c terminus: a fixed tail appended
Property measured: protein stability index
One number for each entry.

Below, each entry is followed by its recorded protein stability index result.
Sequence	protein stability index
AVCKATTHEVMGPKKKHLDYLIQA [SNAP91]	2.96
SHRVVLRPRGKERHKSGVHQPPQA [LYSMD4]	3.98
IEKEYQPHVIVSTTGPNPFTTLTD [ADD1]	3.9

QUERY: Answer with the recorded protein stability index of LLPNPYQQDFLGLPEELRRLSGLS [C22orf15] only.
RESULT: 2.91

====

Experiment: protein stability index of a GFP-peptide fusion (GPS, HEK-293T) (PSI 1-6); higher = more stable
Conditions: treatment: MLN4924 1 uM, 8 h; c terminus: a fixed tail appended
Property measured: protein stability index
Answers are plain numbers.

Below, each entry is followed by its recorded protein stability index result.
Sequence	Property measured	Result
FLPGYVGGIQEGAVTPAGVVNKYQ [DHCR7]	protein stability index	3.45
RLSGAGPAEEAGPEGGLEEPDALD [FOXJ1]	protein stability index	5.59
KGFSHLDVMLVECYDPKGDQWNIL [KLHL14]	protein stability index	2.9
KVKPAEAETAGAIMAFFLCLGLAL [SLC29A1]	protein stability index	2.86
FKLTNKNSDRMTHCGVLEFVADEG [UFD1]	protein stability index	3.27
QLLLIKALQEKLWNVAAPLYLKQS [INTS4]	protein stability index	2.89
RGAPPPPPSRAPTAAPPPPPPSRP [WASL]	protein stability index	5.17
QPSDRLMTEKQQEEAEWESINVLL [CEP70]	protein stability index	4.33

Could you report protein stability index for every entry in the following list?
1. TEHEKKQKLETDAMFRLEHGEADR [YJU2B]
2. SPKYKQDVEGAESQLDEDEHGLHT [TRAF3IP2]
3. QQESESEIDSVPKTQSELASESEH [MIA2]

RESULT:
5.46
5.5
5.62

====

Experiment: protein stability index of a GFP-peptide fusion (GPS, HEK-293T) (PSI 1-6); higher = more stable
Details: treatment: DMSO; c terminus: a fixed tail appended
Class 1: protein stability index at least 3. Class -1: protein stability index below 3.

Sequence	Label class
PTMAPAGQPAPVSMVPPSPAMAAS [SNAP91]	1
STNEITYGLPIMVTLMVAKWTGDF [CLCN6]	1
NGTEDLPYAMKPIDYYTETKILQE [NSDHL]	1

QUERY: State whether the measured protein stability index reaches 3, counting equality as reaching it, for PSAAGAPASAPGEPRQRRLLLLDL [ANKRD9]
RESULT: -1

QUERY: State whether the measured protein stability index reaches 3, counting equality as reaching it, for VMLTLSDSKHVVLPVDDDSDLNVV [RBBP5]
RESULT: 1

QUERY: State whether the measured protein stability index reaches 3, counting equality as reaching it, for PYMNPSPFTVSPNTHVSQVFNLFR [CLCN6]
RESULT: -1

QUERY: State whether the measured protein stability index reaches 3, counting equality as reaching it, for EFCRNTLCAPEVISLINTRMLFWA [FAF2]
RESULT: -1

QUERY: State whether the measured protein stability index reaches 3, counting equality as reaching it, for VASKMKETIPLTAEKLCIYTDNSI [CCND1]
RESULT: 1

QUERY: State whether the measured protein stability index reaches 3, counting equality as reaching it, for GANVKPRNSTPPSLARNPAPGVLT [ZC2HC1A]
RESULT: 1

QUERY: State whether the measured protein stability index reaches 3, counting equality as reaching it, for MSPGPLDALSSPTSVQEADETTRS [C2CD2L]
RESULT: 1

QUERY: State whether the measured protein stability index reaches 3, counting equality as reaching it, for ALSGVGGIRLPNGKLKCDICGIIC [IKZF1]
RESULT: -1

QUERY: State whether the measured protein stability index reaches 3, counting equality as reaching it, for FKLKESCVRRRYSDFEWLKNELER [SNX12]
RESULT: -1

QUERY: State whether the measured protein stability index reaches 3, counting equality as reaching it, for FRADQRSGPRQLLTLYNPTGTALR [MOSPD3]
RESULT: 1

====

Assay: protein stability index of a GFP-peptide fusion (GPS, HEK-293T) (PSI 1-6); higher = more stable
Conditions: treatment: MLN4924 1 uM, 8 h; c terminus: a fixed tail appended
Property measured: protein stability index
Give bare numbers.

Sequence	Result
MAPLLFNGCRSGEIFAIDLRCGNQ [DCAF4]	2.3
AQAAAAESDSRKVAEETPDGAPAL [PRKX]	5.55

Could you report protein stability index for every entry in the following list?
1. MFVFQDGRWVNENCRLQSPYFSPS [CBY2]
2. KEGRPGIPGLPGLRGLPGERGTPG [SCARA5]
3. DGGEPQSVQVDGQARTQKLQGLIP [TNXB]
4. LGAEIRNGMAIIRPPGHHAQHSLM [HDAC6]
5. VEQPQPQFISRFLEGQSGVTIKHV [NEK8]
6. QEVVELPVTERQIEREHLIQLRRW [TBC1D10A]
7. SQEAADTPDTRHPCSLGSSLVADY [YJU2B]

RESULT:
1: 2.05; 2: 4.43; 3: 5.22; 4: 2.99; 5: 3.29; 6: 4.22; 7: 4.59

Could you report protein stability index for every entry in the following list?
1. KKRVSMILQSPAFCEELESMIQEQ [ADD1]
2. VLSLVKKHYRLQFYMFAWTHVTLL [CDS1]
3. VLFSTHTLDKCGICQGDGSSCTHV [ADAMTSL2]
4. ADQKLVIIKQIPVEQMTKEERQAA [NEK8]
5. RSFSDKQKISLLHSCTCVLYTPSN [ALG2]
6. GRASRFLQSISWDPEDFEDAWKRP [TLE6]
7. KKEDTEKERDLRDVGDWRKNIEEK [TNNI2]
8. VVELLLAHGADPTHRLKDGSTMLI [ANKRD17]

RESULT:
[3.76, 2.8, 4.09, 4.61, 2.1, 3.13, 5.39, 2.27]

Could you report protein stability index for every entry in the following list?
1. KISKEEMVRRLKMVVKTFMDMDQD [PDS5B]
2. DRGTRVVFIDFSVYNANINLFCVL [PKD2L1]

RESULT:
1: 2.23; 2: 2.95

====

Assay: protein stability index of a GFP-peptide fusion (GPS, HEK-293T) (PSI 1-6); higher = more stable
Settings: treatment: MLN4924 1 uM, 8 h; c terminus: a fixed tail appended
Class Condition met: protein stability index at least 4. Class Condition not met: protein stability index below 4.

Sequence	Label class
DQDGDQAPEYRGRTELLKDAIGEG [MOG]	Condition met
IISAHIHPVCSLCWSRDGHKLVSA [RBBP5]	Condition not met
EDDVSFLMKHKSRKRRLFCTMEPE [TRIM35]	Condition not met
VLLLGSVDGRHLLRTLSRAKFWPR [DNAAF3]	Condition not met
YQSYFKTIEELQQKILCSKSENAR [KRT33B]	Condition not met

QUERY: State whether the measured protein stability index reaches 4, counting equality as reaching it, for QEVSSVRSLSSTGSLPSHAPPSED [DLC1]
RESULT: Condition met

QUERY: State whether the measured protein stability index reaches 4, counting equality as reaching it, for FLPLNSAQTLHHKSCYNGRFQLLY [DNAAF3]
RESULT: Condition not met

QUERY: State whether the measured protein stability index reaches 4, counting equality as reaching it, for HRRELESSGAGSSPPAAPCPPPPG [ZBED3]
RESULT: Condition met
